Recorded measurements of concentration at 1 h, one per entry
Assay: PK study in male C57 mouse for Examples 14 and 15
Assay type: in vivo
Details: male, C57, mouse, plasma, iv, 1 mg/kg, Example 14 dosed 1 mpk IV, 1.00 h, analyte = labelled compound

{"compound": "COc1cc(C(=O)N2CCC3(CC2)Cc2ccc(-c4cncc(C(=O)O)c4)cc2C(=O)O3)nc2c(OC)cccc12 [Example 15]", "u": "ng/mL", "concentration at 1 h": 55}
{"compound": "COC(=O)c1cncc(-c2ccc3c(c2)C(=O)OC2(CCN(C(=O)c4cc(OC)c5cccc(OC)c5n4)CC2)C3)c1 [Example 14]", "u": "ng/mL", "concentration at 1 h": 199}

###

Consider the following compounds and their measured concentration at 1 h readings.
Test: PK study in male C57 mouse for Examples 14 and 15
Assay type: in vivo
Details: male, C57, mouse, plasma, po, 10 mg/kg, Example 14 dosed 10 mpk PO gavage, 1.00 h, analyte = labelled compound

{"sampleSmiles": "COc1cc(C(=O)N2CCC3(CC2)Cc2ccc(-c4cncc(C(=O)O)c4)cc2C(=O)O3)nc2c(OC)cccc12", "concentration at 1 h [µg/mL]": 0.146}
{"sampleSmiles": "COC(=O)c1cncc(-c2ccc3c(c2)C(=O)OC2(CCN(C(=O)c4cc(OC)c5cccc(OC)c5n4)CC2)C3)c1", "concentration at 1 h [µg/mL]": 3.16}

###

Quick note: these are IC50 numbers for system: human ACC2 (Homo sapiens, UniProt O00763)
Sequence (O00763 whole entry): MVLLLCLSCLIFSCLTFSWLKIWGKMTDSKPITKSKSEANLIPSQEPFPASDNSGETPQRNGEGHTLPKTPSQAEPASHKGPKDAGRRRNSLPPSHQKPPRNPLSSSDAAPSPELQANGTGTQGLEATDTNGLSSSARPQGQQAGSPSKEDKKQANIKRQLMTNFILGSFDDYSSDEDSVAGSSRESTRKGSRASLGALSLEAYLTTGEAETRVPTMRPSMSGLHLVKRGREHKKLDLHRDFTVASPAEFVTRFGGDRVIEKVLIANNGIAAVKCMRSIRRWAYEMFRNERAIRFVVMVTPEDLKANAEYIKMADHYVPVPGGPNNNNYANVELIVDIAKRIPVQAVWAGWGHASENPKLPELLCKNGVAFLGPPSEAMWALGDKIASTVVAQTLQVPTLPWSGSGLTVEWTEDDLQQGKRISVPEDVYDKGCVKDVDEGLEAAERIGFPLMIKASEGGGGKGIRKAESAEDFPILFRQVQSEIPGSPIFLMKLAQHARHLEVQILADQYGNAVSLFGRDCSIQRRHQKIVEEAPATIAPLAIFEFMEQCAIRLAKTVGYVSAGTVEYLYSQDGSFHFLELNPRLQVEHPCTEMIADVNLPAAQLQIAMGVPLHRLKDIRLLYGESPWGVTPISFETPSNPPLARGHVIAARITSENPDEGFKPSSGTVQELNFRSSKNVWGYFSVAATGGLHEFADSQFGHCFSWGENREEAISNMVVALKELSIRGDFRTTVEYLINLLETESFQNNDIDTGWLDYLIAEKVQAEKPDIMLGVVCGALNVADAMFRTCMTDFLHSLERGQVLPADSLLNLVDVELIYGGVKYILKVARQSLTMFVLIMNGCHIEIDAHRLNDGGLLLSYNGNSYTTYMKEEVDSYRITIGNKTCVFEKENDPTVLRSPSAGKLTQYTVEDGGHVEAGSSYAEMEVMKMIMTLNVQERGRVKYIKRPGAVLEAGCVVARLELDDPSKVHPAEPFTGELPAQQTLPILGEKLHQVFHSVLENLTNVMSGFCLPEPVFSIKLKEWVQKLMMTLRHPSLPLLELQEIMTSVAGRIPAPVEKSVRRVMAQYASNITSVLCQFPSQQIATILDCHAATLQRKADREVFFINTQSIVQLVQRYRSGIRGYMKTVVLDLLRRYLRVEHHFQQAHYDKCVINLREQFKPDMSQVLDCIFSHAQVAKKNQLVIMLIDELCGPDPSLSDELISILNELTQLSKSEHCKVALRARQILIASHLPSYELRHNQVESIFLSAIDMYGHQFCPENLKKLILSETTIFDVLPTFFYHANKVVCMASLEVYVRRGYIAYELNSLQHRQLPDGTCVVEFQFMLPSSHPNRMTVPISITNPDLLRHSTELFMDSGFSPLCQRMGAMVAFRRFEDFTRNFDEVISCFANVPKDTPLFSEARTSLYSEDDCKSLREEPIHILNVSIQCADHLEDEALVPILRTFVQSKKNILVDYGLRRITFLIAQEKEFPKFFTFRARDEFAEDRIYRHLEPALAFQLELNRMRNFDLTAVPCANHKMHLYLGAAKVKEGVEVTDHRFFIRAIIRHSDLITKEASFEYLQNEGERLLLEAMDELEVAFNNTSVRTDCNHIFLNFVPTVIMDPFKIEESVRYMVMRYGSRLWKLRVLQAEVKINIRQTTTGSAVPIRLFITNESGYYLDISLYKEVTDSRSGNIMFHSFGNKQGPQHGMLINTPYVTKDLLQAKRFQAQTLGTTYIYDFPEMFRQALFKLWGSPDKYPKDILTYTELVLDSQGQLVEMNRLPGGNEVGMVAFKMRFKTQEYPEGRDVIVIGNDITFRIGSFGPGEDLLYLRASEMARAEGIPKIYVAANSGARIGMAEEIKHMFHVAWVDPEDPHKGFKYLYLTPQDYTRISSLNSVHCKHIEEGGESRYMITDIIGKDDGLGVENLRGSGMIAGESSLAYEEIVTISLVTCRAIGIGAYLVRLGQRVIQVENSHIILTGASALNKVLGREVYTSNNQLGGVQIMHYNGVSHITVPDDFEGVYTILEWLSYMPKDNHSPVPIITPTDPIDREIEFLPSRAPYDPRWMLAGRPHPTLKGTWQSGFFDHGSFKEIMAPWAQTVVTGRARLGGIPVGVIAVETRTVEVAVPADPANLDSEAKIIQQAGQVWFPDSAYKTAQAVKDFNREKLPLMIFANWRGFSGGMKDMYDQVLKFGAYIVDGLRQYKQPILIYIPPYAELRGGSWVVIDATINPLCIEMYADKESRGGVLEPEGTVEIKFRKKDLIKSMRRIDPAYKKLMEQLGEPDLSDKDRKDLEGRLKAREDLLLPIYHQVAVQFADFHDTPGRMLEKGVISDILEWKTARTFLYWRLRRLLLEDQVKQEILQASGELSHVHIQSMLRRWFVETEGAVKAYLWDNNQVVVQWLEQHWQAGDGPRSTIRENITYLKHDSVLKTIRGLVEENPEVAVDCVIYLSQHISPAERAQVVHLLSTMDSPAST
assayReadout: IC50

{"molecule": "COc1cc(C(=O)N2CCC3(CC2)Cc2ccc(-c4cncc(C(=O)O)c4)cc2C(=O)O3)nc2c(OC)cccc12 [Example 15]", "assayReadout": "IC50", "assayValue": "33 nM"}
{"molecule": "COc1cc(C(=O)N2CCC3(CC2)Cc2ccc(Nc4ccnn4C)cc2C(=O)O3)nc2c(OC)cccc12 [Example 6]", "assayReadout": "IC50", "assayValue": "31.2 nM"}
{"molecule": "COc1cc(C(=O)N2CCC3(CC2)Cc2ccc(-c4cncc(C(=O)O)c4)cc2C(=O)O3)cc2c1c(C)cn2C1CC1 [Example 22]", "assayReadout": "IC50", "assayValue": "11.1 nM"}

###

Assay: PK study in male C57 mouse for Examples 14 and 15
Type: in vivo
Conditions: male, C57, mouse, plasma, iv, 1 mg/kg, Example 15 dosed 1 mpk IV, 0.50 h
assayReadout: concentration at 0.5 h

{"compound": "COc1cc(C(=O)N2CCC3(CC2)Cc2ccc(-c4cncc(C(=O)O)c4)cc2C(=O)O3)nc2c(OC)cccc12 [Example 15]", "assayValue": "95 ng/mL"}

###

Assay: PK study in male C57 mouse for Examples 14 and 15
Type: in vivo
Conditions: male, C57, mouse, plasma, iv, 1 mg/kg, Example 15 dosed 1 mpk IV, 0.08 h
assayReadout: concentration at 0.08 h

{"compound": "COc1cc(C(=O)N2CCC3(CC2)Cc2ccc(-c4cncc(C(=O)O)c4)cc2C(=O)O3)nc2c(OC)cccc12 [Example 15]", "assayReadout": "concentration at 0.08 h", "assayValue": "3010 ng/mL"}

###

Assay: PK study in male C57 mouse for Examples 14 and 15
Assay type: in vivo
Details: male, C57, mouse, plasma, iv, 1 mg/kg, Example 14 dosed 1 mpk IV, 8.00 h, analyte = labelled compound
assayReadout: concentration at 8 h (ng/mL)

{"sampleSmiles": "COc1cc(C(=O)N2CCC3(CC2)Cc2ccc(-c4cncc(C(=O)O)c4)cc2C(=O)O3)nc2c(OC)cccc12", "assayReadout": "concentration at 8 h", "assayValue": 1.5}
